# Tested on: AGS
# METHOD DESCRIPTION: Cell proliferation experiment (CellTiter-Glo)
# Format: cell-based
# CONDITIONS: Homo sapiens, AGS, 96 h, read-out: IC50(nM) AGS
Assignment: determine reported IC50 for the given compounds.
Write the value in nM as a bare number.

IC50 lookup needed for CCc1c(F)ccc2cc(O)cc(-c3ncc4c(N5CCC[C@@](C)(O)C5)nc(OCCN5CCC(COc6cc([C@H](C(=O)N7C[C@H](O)C[C@H]7C(=O)N[C@@H](C)c7ccc(-c8scnc8C)cc7)C(C)C)on6)CC5)nc4c3F)c12 , thanks.
63

Can you share its IC50? I mean this compound: CCc1c(F)ccc2cc(O)cc(-c3ncc4c(N5CCC[C@@](C)(O)C5)nc(OCC5(CN6CCN(C7CC(c8cn([C@H](C(=O)N9C[C@H](O)C[C@H]9C(=O)N[C@@H](C)c9ccc(-c%10scnc%10C)cc9)C(C)C)nn8)C7)CC6)CC5)nc4c3F)c12 (stereo partly shown)
9.2

Fill in: IC50 of CCc1c(F)ccc2cc(O)cc(-c3ncc4c(N5CCC[C@@](C)(O)C5)nc(OCC5(CN6CCC(c7ccc(-c8cn([C@H](C(=O)N9C[C@H](O)C[C@H]9C(=O)N[C@@H](C)c9ccc(-c%10scnc%10C)cc9)C(C)C)nn8)cc7)CC6)CC5)nc4c3F)c12 is ___
13

I would be grateful if you could share the reported IC50 for C=C1CN2[C@H](COC(=O)N3CCC(Cc4cn([C@H](C(=O)N5C[C@H](O)C[C@H]5C(=O)N[C@@H](C)c5ccc(-c6scnc6C)cc5)C(C)C)nn4)CC3)CC[C@@]2(COc2nc(N3CCC[C@@](C)(O)C3)c3cnc(-c4cc(O)cc5ccc(F)c(CC)c45)c(F)c3n2)C1 .
31

Reported IC50, compound CCc1c(F)ccc2cc(O)cc(-c3ncc4c(N5CCC[C@@](C)(O)C5)nc(OCC5(CN6CCC(n7cc(-c8cn([C@H](C(=O)N9C[C@H](O)C[C@H]9C(=O)N[C@@H](C)c9ccc(-c%10scnc%10C)cc9)C(C)C)nn8)cn7)CC6)CC5)nc4c3F)c12 : ____
14

Give the measured IC50 of CCc1c(F)ccc2cc(O)cc(-c3ncc4c(N5CCC[C@@](C)(O)C5)nc(OCC5(CN6CCC7(CC6)CN(c6ccc(-c8cn([C@H](C(=O)N9C[C@H](O)C[C@H]9C(=O)N[C@@H](C)c9ccc(-c%10scnc%10C)cc9)C(C)C)nn8)cc6)C7)CC5)nc4c3F)c12 .
11

Give the measured IC50 of CCc1c(F)ccc2cc(O)cc(-c3ncc4c(N5CCC[C@@](C)(O)C5)nc(OCC5(CN6CCC(COc7ccc(-c8cn([C@H](C(=O)N9C[C@H](O)C[C@H]9C(=O)N[C@@H](C)c9ccc(-c%10scnc%10C)cc9)C(C)C)nn8)cc7)CC6)CC5)nc4c3F)c12 .
14

* * *

# System: AGS
# METHOD DESCRIPTION: Cell proliferation experiment (CellTiter-Glo)
# Type: cell-based
# CONDITIONS: Homo sapiens, AGS, 96 h, read-out: IC50(nM) AGS
PARAMETER: IC50 (nM)
# unit: nM | format: bare number

# get_value(readout='IC50', item= CCc1c(F)ccc2cc(O)cc(-c3ncc4c(N5CCC[C@@](C)(O)C5)nc(OCC5(CN6CCC(Oc7ccc(-c8cn([C@H](C(=O)N9C[C@H](O)C[C@H]9C(=O)N[C@@H](CO)c9ccc(-c%10ccnn%10CC)cc9)C(C)C)nn8)cn7)CC6)CC5)nc4c3F)c12 )
14

# get_value(readout='IC50', item= CCc1c(F)ccc2cc(O)cc(-c3ncc4c(N5CCC[C@@](C)(O)C5)nc(OCC5(CN6CCN(C7CN(c8cc([C@H](C(=O)N9C[C@H](O)C[C@H]9C(=O)N[C@@H](C)c9ccc(-c%10scnc%10C)cc9)C(C)C)on8)C7)CC6)CC5)nc4c3F)c12 )
9.6

// returns reported IC50 for input CCc1c(F)ccc2cc(O)cc(-c3ncc4c(N5CCC[C@@](C)(O)C5)nc(OCC5(CN6CCC7(CC6)CC(Oc6cc([C@H](C(=O)N8C[C@H](O)C[C@H]8C(=O)N[C@@H](C)c8ccc(-c9scnc9C)cc8)C(C)C)on6)C7)CC5)nc4c3F)c12
11

Entry C=C1CN2[C@@H](COC(=O)N3CCC4(CC3)CC(c3cn([C@H](C(=O)N5C[C@H](O)C[C@H]5C(=O)N[C@@H](C)c5ccc(-c6scnc6C)cc5)C(C)C)nn3)C4)CC[C@@]2(COc2nc(N3CCC[C@@](C)(O)C3)c3cnc(-c4cc(O)cc5ccc(F)c(CC)c45)c(F)c3n2)C1 : reported IC50 = ?
16
